Where do the numbers come from? From patent US20250215104A1.

Target: T1, cynomolgus soluble urokinase plasminogen activator receptor (suPAR) (cynomolgus, UniProt Q9GK78 23-303, limits assumed)
T1 construct: Column head says only 'cynomologus'; also called cynomolgus suPAR; cynomolgus uPAR
T1 sequence (Q9GK78 23-303 limits assumed): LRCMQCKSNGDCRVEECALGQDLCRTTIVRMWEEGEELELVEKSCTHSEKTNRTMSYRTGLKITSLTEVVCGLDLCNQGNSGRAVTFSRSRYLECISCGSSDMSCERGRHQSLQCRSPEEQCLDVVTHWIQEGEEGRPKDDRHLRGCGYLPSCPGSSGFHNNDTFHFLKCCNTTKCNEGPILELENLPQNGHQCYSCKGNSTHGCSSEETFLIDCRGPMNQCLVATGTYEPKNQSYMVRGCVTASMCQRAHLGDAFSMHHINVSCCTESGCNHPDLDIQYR
Assay: BLI (Octet) off-rate screen of scFv clones
Consider the following binders and their measured koff readings.

Example binders with recorded koff:
binder | koff
suPAR_DB05_A07 (scFv, V domains shown, Screened as scFv) VH: QVQLVQSGAEVKKPGASVKVSCKASGYTFTNYYMQWVRQAPGQGLEWMGWIDHENGNTIYAQKFQGRVTMTRDTSTSTVYMELSSLRSEDTAVYYCARGYDVDWFVYWGQGTLVTVSS VL: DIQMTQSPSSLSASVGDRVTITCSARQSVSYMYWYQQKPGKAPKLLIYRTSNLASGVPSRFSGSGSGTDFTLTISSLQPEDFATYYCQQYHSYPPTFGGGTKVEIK | 0.00029 s⁻¹
suPAR_DB05_D03 (scFv, V domains shown, Screened as scFv) VH: QVQLVQSGAEVKKPGASVKVSCKASGYTFGNYYMHWVRQAPGQGLEWMGWIDHENGNTIYAQKFQGRVTMTRDTSTSTVYMELSSLRSEDTAVYYCARGNDVDWFVYWGQGTLVTVSS VL: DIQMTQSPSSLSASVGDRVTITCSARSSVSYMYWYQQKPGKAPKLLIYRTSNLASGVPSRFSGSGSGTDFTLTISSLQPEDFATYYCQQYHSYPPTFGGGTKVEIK | 0.00124 s⁻¹
suPAR_DB05_D12 (scFv, V domains shown, Screened as scFv) VH: QVQLVQSGAEVKKPGASVKVSCKASGFTFTNYYFHWVRQAPGQGLEWMGWIDPENGNTIYDQKFQGRVTMTRDTSTSTVYMELSSLRSEDTAVYYCARGYDVDWFVYWGQGTLVTVSS VL: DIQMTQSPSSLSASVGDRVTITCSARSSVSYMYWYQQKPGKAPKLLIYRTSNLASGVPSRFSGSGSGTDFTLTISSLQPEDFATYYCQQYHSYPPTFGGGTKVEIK | 0.000352 s⁻¹
suPAR_DB05_B05 (scFv, V domains shown, Screened as scFv) VH: QVQLVQSGAEVKKPGASVKVSCKASGNTFSGYYVHWVRQAPGQGLEWMGWIDPSNGNTIYDQKFQGRVTMTRDTSTSTVYMELSSLRSEDTAVYYCARGYDVDWFVYWGQGTLVTVSS VL: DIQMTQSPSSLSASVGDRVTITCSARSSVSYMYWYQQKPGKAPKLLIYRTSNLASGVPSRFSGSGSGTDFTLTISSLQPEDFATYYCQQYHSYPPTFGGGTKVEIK | 0.000193 s⁻¹

# context switch: different binder, same koff
For the binder suPAR_DB05_B09 (scFv, V domains shown, Screened as scFv) VH: QVQLVQSGAEVKKPGASVKVSCKASGYTFTGYYMHWVRQAPGQGLEWMGWIDPSGGNTIYDQKFQGRVTMTRDTSTSTVYMELSSLRSEDTAVYYCARGYDVDWFVYWGQGTLVTVSS VL: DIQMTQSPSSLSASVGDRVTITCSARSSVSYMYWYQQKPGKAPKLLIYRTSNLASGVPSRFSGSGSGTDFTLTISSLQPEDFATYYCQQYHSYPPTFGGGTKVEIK , give its reported koff.
0.000583 s⁻¹
